- Test system: human GRN mRNA
- EXPERIMENT_SUMMARY: hGRN mRNA qPCR in HepG2 cells transfected with ASOs
- Format: cell-based
- PROTOCOL_CONDITIONS: 100 nM ASO, 48 hours post-transfection
Oligonucleotides are written 5' to 3', each unit as a sugar letter and its base; * is a phosphorothioate linkage, no mark a phosphodiester; rarer units and linkages stand in square brackets, end groups in braces. Plain capitals give the bases only. e = 2'-O-(2-methoxyethyl) (MOE); [5mC] = 5-methylcytosine
OBSERVED_PROPERTY: hGRN mRNA FC (FC)

{"columns": ["SUBSTANCE", "OBSERVED_PROPERTY", "UNITS", "VAL"],
 "data": [
  ["CO-3488: ASO targeting hGRN paRNA (− strand) (antisense eT*eG*e[5mC]*eA*eG*e[5mC]*eA*eG*eT*e[5mC]*eT*e[5mC]*e[5mC]*eA*eT*e[5mC]*e[5mC]*e[5mC]*e[5mC]*eT)", "hGRN mRNA FC", "FC", 0.9],
  ["CO-3436: ASO targeting hGRN paRNA (− strand) (antisense eT*eT*e[5mC]*e[5mC]*e[5mC]*e[5mC]*eT*eG*eG*eA*eG*eT*e[5mC]*eT*e[5mC]*eA*eG*e[5mC]*e[5mC]*eG)", "hGRN mRNA FC", "FC", 1.2],
  ["CO-3502: ASO targeting hGRN paRNA (− strand) (antisense eG*eT*eA*eG*eG*eT*eT*eA*eT*eT*eG*eA*eT*e[5mC]*eG*eA*eT*eT*e[5mC]*eA)", "hGRN mRNA FC", "FC", 0.8]
]}
